Biological target: Lethal factor (Bacillus anthracis, UniProt P15917)
Assay: Inhibition of Bacillus anthracis lethal factor
Measured pIC50 values are reported for all entries that follow.
Answer as the number alone; pIC50 is minus log10 of concentration in mol/L.

CNC(=O)[C@@H](CCc1ccccc1)NC(=O)[C@@H](CC(=O)NO)CC(C)C    5.15

Moving on to the next compound.
Short answer for Cc1cc(=S)c(O)c(C(=S)NCc2ccc(-c3ccccc3)cc2)o1 : pIC50 was 4.85

====

Biological target: Botulinum neurotoxin type A (Clostridium botulinum, UniProt P0DPI0)
Sequence (P0DPI0 2-448 limits assumed): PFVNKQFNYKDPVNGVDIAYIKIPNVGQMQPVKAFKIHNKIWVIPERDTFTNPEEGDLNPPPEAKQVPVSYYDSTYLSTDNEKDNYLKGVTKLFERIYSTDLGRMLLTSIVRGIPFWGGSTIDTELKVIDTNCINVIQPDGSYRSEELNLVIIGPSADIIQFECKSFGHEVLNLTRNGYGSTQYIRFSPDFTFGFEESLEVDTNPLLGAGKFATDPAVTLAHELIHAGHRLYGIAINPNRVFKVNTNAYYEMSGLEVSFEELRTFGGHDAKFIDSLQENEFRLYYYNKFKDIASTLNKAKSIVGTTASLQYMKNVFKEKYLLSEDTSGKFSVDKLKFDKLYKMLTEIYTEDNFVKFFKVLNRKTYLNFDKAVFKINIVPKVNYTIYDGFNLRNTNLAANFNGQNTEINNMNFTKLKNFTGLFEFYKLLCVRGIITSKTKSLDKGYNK
pIC50: −log10 of the molar value.
Measured pIC50 values are reported for all entries that follow.

Short answer for Cc1cc(N)c2cc(NC(=O)NCc3ccccc3Cl)ccc2n1 : pIC50 was < 4.00

Short answer for COc1ccsc1CCC(=O)Nc1ccc2nc(C)cc(N)c2c1 : pIC50 was < 4.00

Short answer for COc1ccc(NC(=O)Nc2ccc3nc(C)cc(N)c3c2)cc1 : pIC50 was 4.39

Short answer for Cc1cc(N)c2cc(NC(=O)Nc3ccc(-c4ccccc4)cc3)ccc2n1 : pIC50 was 4.10

Short answer for Cc1cc(N)c2cc(NC(=O)c3cccc(-c4cncc5ccccc45)c3)ccc2n1 : pIC50 was < 4.00

Short answer for Cc1cc(N)c2cc(NC(=O)c3cc4ccccc4o3)ccc2n1 : pIC50 was < 4.00

Short answer for Cc1cc(N)c2cc(NC(=O)Nc3ccc(C(C)C)cc3)ccc2n1 : pIC50 was 4.21

Short answer for Cc1cc(N)c2cc(NC(=O)c3cccnc3)ccc2n1 : pIC50 was < 4.00

Short answer for Cc1cc(N)c2cc(NC(=O)c3ccc(N4CCOCC4)cc3)ccc2n1 : pIC50 was 4.57

Short answer for Cc1cc(N)c2cc(NC(=O)Cc3ccccc3)ccc2n1 : pIC50 was < 4.00

Short answer for COc1ccc2[nH]c(C(=O)Nc3ccc4nc(C)cc(N)c4c3)cc2c1 : pIC50 was 4.46

Short answer for Cc1cc(N)c2cc(NC(=O)Cc3ccccc3Cl)ccc2n1 : pIC50 was < 4.00

Short answer for Cc1cc(N)c2cc(NC(=O)c3cccc(-c4cccc5cccnc45)c3)ccc2n1 : pIC50 was 4.10

Short answer for Cc1cc(N)c2cc(NC(=O)CCc3ccccc3OC(=O)c3ccccc3)ccc2n1 : pIC50 was < 4.00

Short answer for Cc1cc(N)c2cc(NC(=O)Cc3ccc4c(c3)OCO4)ccc2n1 : pIC50 was < 4.00

Short answer for COc1ccccc1CNC(=O)Nc1ccc2nc(C)cc(N)c2c1 : pIC50 was < 4.00

Short answer for COc1ccc(CCC(=O)Nc2ccc3nc(C)cc(N)c3c2)cc1 : pIC50 was < 4.00

Short answer for Cc1cc(N)c2cc(NC(=O)c3ccc(-c4cncc5ccccc45)cc3)ccc2n1 : pIC50 was 4.19

Short answer for CCCOc1ccccc1CCC(=O)Nc1ccc2nc(C)cc(N)c2c1 : pIC50 was < 4.00

Short answer for COc1ccc(Br)cc1CCC(=O)Nc1ccc2nc(C)cc(N)c2c1 : pIC50 was < 4.00

Short answer for Cc1cc(N)c2cc(NC(=O)c3ccc(-c4cccnc4)cc3)ccc2n1 : pIC50 was 4.64

Short answer for Cc1cc(N)c2cc(NC(=O)CCc3ccc(F)cc3)ccc2n1 : pIC50 was < 4.00

Short answer for Cc1cc(N)c2cc(NC(=O)CCc3ccccc3C(F)(F)F)ccc2n1 : pIC50 was < 4.00

Short answer for Cc1cc(N)c2cc(NC(=O)COc3ccc(OCc4ccccc4)cc3)ccc2n1 : pIC50 was < 4.00

Short answer for Cc1cc(N)c2cc(NC(=O)c3cccc(C(=O)c4ccccc4)c3)ccc2n1 : pIC50 was < 4.00

====

Target: Lethal factor (Bacillus anthracis, UniProt P15917)
Sequence (P15917 whole entry): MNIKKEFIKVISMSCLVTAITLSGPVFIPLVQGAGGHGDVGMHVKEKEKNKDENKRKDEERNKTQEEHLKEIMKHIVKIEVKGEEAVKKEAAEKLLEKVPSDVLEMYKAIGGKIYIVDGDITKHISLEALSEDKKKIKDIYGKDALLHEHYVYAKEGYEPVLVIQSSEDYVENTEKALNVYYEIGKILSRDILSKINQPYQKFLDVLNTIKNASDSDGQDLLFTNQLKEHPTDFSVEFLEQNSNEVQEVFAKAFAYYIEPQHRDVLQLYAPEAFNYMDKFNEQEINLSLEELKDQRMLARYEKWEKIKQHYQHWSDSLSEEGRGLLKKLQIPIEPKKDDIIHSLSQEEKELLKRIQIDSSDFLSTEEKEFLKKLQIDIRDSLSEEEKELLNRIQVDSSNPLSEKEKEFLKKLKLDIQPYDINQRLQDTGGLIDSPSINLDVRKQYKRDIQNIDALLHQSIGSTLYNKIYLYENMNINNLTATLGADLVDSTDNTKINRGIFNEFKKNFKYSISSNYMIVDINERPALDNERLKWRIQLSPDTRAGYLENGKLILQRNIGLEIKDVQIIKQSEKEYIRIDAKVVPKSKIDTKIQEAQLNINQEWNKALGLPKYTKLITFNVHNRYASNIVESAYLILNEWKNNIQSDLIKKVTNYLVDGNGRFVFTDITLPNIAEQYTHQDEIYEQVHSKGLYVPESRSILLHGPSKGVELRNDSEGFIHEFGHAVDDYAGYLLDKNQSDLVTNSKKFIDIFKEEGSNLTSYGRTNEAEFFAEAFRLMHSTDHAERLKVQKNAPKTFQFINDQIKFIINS
Test: Inhibition of Bacillus anthracis lethal factor assessed as MCA-KKVYPYPME[dnp]K amide cleavage after 30 mins by fluorescence plate reader analysis
Values of IC50 strictly less than 20 µM map to TRUE, and values of at least 20 µM map to FALSE.

COc1ccccc1CC(=O)Nc1ccc2nc(C)cc(N)c2c1    FALSE

Input line: Quick check: does Cc1cc(N)c2cc(NC(=O)c3cccc(-c4cncc5ccccc45)c3)ccc2n1 have IC50 under 20 µM?
Output line: FALSE

Input line: Quick check: does COc1ccc(Cl)cc1CCC(=O)Nc1ccc2nc(C)cc(N)c2c1 have IC50 under 20 µM?
Output line: FALSE

Input line: Quick check: does Cc1cc(N)c2cc(NC(=O)c3ccc(Oc4ccccc4)cc3)ccc2n1 have IC50 under 20 µM?
Output line: FALSE

Input line: Quick check: does Cc1cc(N)c2cc(NC(=O)c3ccc(-c4cccc5ncccc45)cc3)ccc2n1 have IC50 under 20 µM?
Output line: TRUE

Input line: Quick check: does Cc1cc(N)c2cc(NC(=O)CCc3ccc(F)cc3)ccc2n1 have IC50 under 20 µM?
Output line: FALSE

Input line: Quick check: does Cc1cc(N)c2cc(NC(=O)c3ccc(-c4ccc5ncccc5c4)cc3)ccc2n1 have IC50 under 20 µM?
Output line: TRUE

Input line: Quick check: does Cc1cc(N)c2cc(NC(=O)Nc3ccc(C(=O)c4ccccc4)cc3)ccc2n1 have IC50 under 20 µM?
Output line: FALSE

Input line: Quick check: does Cc1cc(N)c2cc(NC(=O)Nc3ccc(C(C)C)cc3)ccc2n1 have IC50 under 20 µM?
Output line: FALSE

Input line: Quick check: does COc1ccc(Br)cc1CCC(=O)Nc1ccc2nc(C)cc(N)c2c1 have IC50 under 20 µM?
Output line: FALSE

====

Measured IC50 values are reported for all entries that follow.
Target: Lethal factor (Bacillus anthracis, UniProt P15917)
Experiment: Non-competitive inhibition of Bacillus anthracis lethal factor using 25 uM MCA-KKVYPYPME[dnp]K amide as substrate after 30 mins by Eadie-Hofstee plot analysis
Please state the figure in nM; there is no need to write the unit.

COc1ccccc1CCC(=O)Nc1ccc2nc(C)cc(N)c2c1    952

Moving on to the next compound.
Short answer for Cc1cc(N)c2cc(NC(=O)c3ccc(-c4ccc5ncccc5c4)cc3)ccc2n1 : IC50 was 1220

====

Measured pIC50 values are reported for all entries that follow.
Biological target: Lethal factor (Bacillus anthracis, UniProt P15917)
Assay: Inhibition of Bacillus anthracis lethal factor assessed as MCA-KKVYPYPME[dnp]K amide cleavage after 30 mins by fluorescence plate reader analysis
Answer as the number alone; pIC50 is minus log10 of concentration in mol/L.

COc1ncccc1CCC(=O)Nc1ccc2nc(C)cc(N)c2c1    4.39
Cc1cc(N)c2cc(NC(=O)CCc3ccccc3C(F)(F)F)ccc2n1    4.42
Cc1cc(N)c2cc(NC(=O)c3cc4ccccc4o3)ccc2n1    4.05
COc1cc(Br)ccc1CCC(=O)Nc1ccc2nc(C)cc(N)c2c1    4.24
COc1ccccc1/C=C/C(=O)Nc1ccc2nc(C)cc(N)c2c1    4.34

For the compound COc1ccc2[nH]c(C(=O)Nc3ccc4nc(C)cc(N)c4c3)cc2c1 , the measured pIC50 on Lethal factor (Bacillus anthracis, UniProt P15917) was 4.36

For the compound Cc1cc(N)c2cc(NC(=O)c3cccc(C(=O)c4ccccc4)c3)ccc2n1 , the measured pIC50 on Lethal factor (Bacillus anthracis, UniProt P15917) was 4.14

Measured values drawn from ChEMBL document CHEMBL3098056 for this set.
